- target-desc: T1, Human OX40 (Sino Biological Inc) (human, UniProt P43489 29-216, limits assumed)
- T1 construct: Bought soluble protein used as SPR analyte; also called huOX40
- T1 sequence: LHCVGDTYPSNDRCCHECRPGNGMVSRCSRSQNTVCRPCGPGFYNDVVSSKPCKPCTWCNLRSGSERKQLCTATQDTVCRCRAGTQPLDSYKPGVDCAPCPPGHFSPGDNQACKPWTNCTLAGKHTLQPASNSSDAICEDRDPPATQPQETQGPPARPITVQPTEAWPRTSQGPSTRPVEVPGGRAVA
- test-summary: SPR (Biacore), antibody captured via anti-human Fc, huOX40 analyte
Provide the recorded kon for the entries that follow.
Lab book: enter the figure in M⁻¹ s⁻¹, no units written.

Tell me its kon given 1A7.gr.NGSS (antibody, V domains shown) VH: EVQLVQSGAEVKKPGASVKVSCKASGYTFTDSYMSWVRQAPGQGLEWIGDMYPDNGSSSYNQKFRERVTITRDTSTSTAYLELSSLRSEDTAVYYCVLAPRWYFSVWGQGTLVTVSS VL: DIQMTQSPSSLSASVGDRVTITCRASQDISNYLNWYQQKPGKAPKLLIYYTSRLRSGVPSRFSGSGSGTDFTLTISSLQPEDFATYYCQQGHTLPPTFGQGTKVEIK as the entry.
349000

Tell me its kon given 1A7.gr.SGDS (antibody, V domains shown) VH: EVQLVQSGAEVKKPGASVKVSCKASGYTFTDSYMSWVRQAPGQGLEWIGDMYPDSGDSSYNQKFRERVTITRDTSTSTAYLELSSLRSEDTAVYYCVLAPRWYFSVWGQGTLVTVSS VL: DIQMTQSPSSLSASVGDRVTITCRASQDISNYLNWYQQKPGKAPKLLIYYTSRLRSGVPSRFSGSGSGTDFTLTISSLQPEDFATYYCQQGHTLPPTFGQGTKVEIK as the entry.
230000

Tell me its kon given 1A7.gr.NADA (antibody, V domains shown) VH: EVQLVQSGAEVKKPGASVKVSCKASGYTFTDSYMSWVRQAPGQGLEWIGDMYPDNADASYNQKFRERVTITRDTSTSTAYLELSSLRSEDTAVYYCVLAPRWYFSVWGQGTLVTVSS VL: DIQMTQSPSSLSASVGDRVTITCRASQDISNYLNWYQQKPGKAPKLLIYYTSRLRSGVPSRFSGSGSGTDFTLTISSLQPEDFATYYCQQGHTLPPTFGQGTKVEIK as the entry.
304000

Tell me its kon given 1A7.gr.DANADA (antibody, V domains shown) VH: EVQLVQSGAEVKKPGASVKVSCKASGYTFTDAYMSWVRQAPGQGLEWIGDMYPDNADASYNQKFRERVTITRDTSTSTAYLELSSLRSEDTAVYYCVLAPRWYFSVWGQGTLVTVSS VL: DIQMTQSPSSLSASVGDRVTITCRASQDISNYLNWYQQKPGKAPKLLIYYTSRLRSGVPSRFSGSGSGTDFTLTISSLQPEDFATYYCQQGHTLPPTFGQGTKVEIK as the entry.
387000
